Target: RSV prefusion F (preF), DS-Cav1 (respiratory syncytial virus, UniProt P03420 26-513)
Assay: BLI, IgG on sensor, 100 nM antigen
measured-metric: Kd (nM)

[[record]]
binder = "ADI-41403 (antibody, V domains shown, IgG1) VH: EVQLVESGGGLVKPGGSLRLSCAASGFTFGTYTMNWVRQAPGKGLEWVSSISSSSSHIYYADSVKGRFTISRDNARKALYLQMNSLRPEDTAVYFCARFLGDYGGDGNTYYYYYGMDVWGQGTTVTVSS VL: EIVMTQSPLSLPVTPGEPASISCRSSQSLLHSNGKNYLDWYLQKPGQSPQLLIHLGSNRASGVPDRFSGSGSGTDFTLQISRVEAEDVGVYYCMQALQTPTFGGGTKLEIK"
value_observed = 3.04

[[record]]
binder = "ADI-41373 (antibody, V domains shown, IgG1; also called Ab 670) VH: QVTLKESGGGLVKPGGSLRLSCAASGFTFSDYFMTWIRQAPGKGLEWVSYISSNSGYTKYAEDVKGRFSISRDNAKKTLFLQLNSLSAEDTAVYYCARVEFSSGDVPSLFDLWGQGTLVTVSS VL: QSVLTQPPSVSGAPGQRVTISCTGSSSNIGAGYHVHWYQQLPGTAPKVLIHGNNNRPSGVPDRFSGSRSGTSASLAITGLQAEDEADYYCQSYDFSLSGWVFGGGTKLTVL"
value_observed = 3.71

[[record]]
binder = "ADI-41418 (antibody, V domains shown, IgG1) VH: EVQLVESGGGLVKPGGSLRLSCAASGLSFTDAWMGWVRQAPGKGLEWVGHIKKKTDYGPTAYAAPVRGRFTVSRDDSKNTLYLQMTSLKTEDTAVYYCITERGYNFGYNDYFGVDVWGQGTLVTVSS VL: QPGLTQPPSVSVSPGQTARITCSGDALPKKYAYWYQQKSGQAPVMIIYEDNKRPSGIPERFSGSTSGTMATLTISGAQMEDEADYYCFSTDSGDDQSGVFGGGTRLTVL"
value_observed = 1.58

